These entries and their values trace back to patent US11066447B2.

- System: C. parapsilosis MMX 2323 ATCC 22019
- assay_text: MIC assay (CLSI microdilution)
- Format: cell-based, Candida parapsilosis
- experimental_parameters: ATCC22019, Without Tween-80; read-out: MIC
Numbered stars: 1 amine (or outer) side, 2 acyl side, 3 side chain; on linkers, the order of the positions; unused ones are H or OH. Square brackets hold non-standard residues; d marks the D form. Peptide text beside a SMILES is read from it. X13 = CN([C@@H](Cc1cccc(-c2ccc(N3CCN(C(=O)OC(C)(C)C)CC3)nc2)c1)C(=O)[*:2])[*:1]; X3 = CN1CCN(c2ccc(-c3cccc(C[C@@H](C(=O)[*:2])N(C)[*:1])c3)cn2)CC1; X24 = CN([C@@H](Cc1cccc(-c2ccnc(N3CCOCC3)c2)c1)C(=O)[*:2])[*:1]; X32 = CN([C@@H](Cc1cccc(-c2cccc(F)c2)c1)C(=O)[*:2])[*:1]; Hmp(2R,3S) = CC[C@H](C)[C@@H](O)C(=O)O; NMeVal(β-OH) = CN[C@H](C(=O)O)C(C)(C)O; NMeV = CN[C@H](C(=O)O)C(C)C
assay_readout: MIC (µg/mL)
Unit µg/mL implied. Number only.

Known results for compounds:
>  <compound>
CC[C@H](C)[C@@H]1NC(=O)[C@@H]2CCCN2C(=O)[C@H](Cc2cccc(-c3ccnc(N4CCOCC4)c3)c2)N(C)C(=O)[C@H](Cc2ccccc2)NC(=O)[C@H](C(C)C)N(C)C(=O)[C@@H]([C@@H](C)CC)OC(=O)[C@H](C(C)(C)O)N(C)C(=O)[C@H](CC(C)C)NC(=O)[C@H](C(C)C)N(C)C1=O [Compound 21] (cyclo(F[X24]PI[NMeV]L[NMeVal(β-OH)][Hmp(2R,3S)][NMeV]))

>  <assayed_system>
C. parapsilosis MMX 2323 ATCC 22019

>  <quantitative_readout>
1

$$$$
>  <compound>
CC[C@H](C)[C@@H]1NC(=O)[C@@H]2CCCN2C(=O)[C@H](Cc2cccc(-c3ccc(N4CCN(C(=O)OC(C)(C)C)CC4)nc3)c2)N(C)C(=O)[C@H](Cc2ccccc2)NC(=O)[C@H](C(C)C)N(C)C(=O)[C@@H]([C@@H](C)CC)OC(=O)[C@H](C(C)(C)O)N(C)C(=O)[C@H](CC(C)C)NC(=O)[C@H](C(C)C)N(C)C1=O [Compound 26] (cyclo(F[X13]PI[NMeV]L[NMeVal(β-OH)][Hmp(2R,3S)][NMeV]))

>  <assayed_system>
C. parapsilosis MMX 2323 ATCC 22019

>  <quantitative_readout>
2

$$$$
>  <compound>
CC[C@H](C)[C@@H]1NC(=O)[C@@H]2CCCN2C(=O)[C@H](Cc2cccc(-c3ccc(N4CCN(C)CC4)nc3)c2)N(C)C(=O)[C@H](Cc2ccccc2)NC(=O)[C@H](C(C)C)N(C)C(=O)[C@@H]([C@@H](C)CC)OC(=O)[C@H](C(C)(C)O)N(C)C(=O)[C@H](CC(C)C)NC(=O)[C@H](C(C)C)N(C)C1=O [Compound 20] (cyclo(F[X3]PI[NMeV]L[NMeVal(β-OH)][Hmp(2R,3S)][NMeV]))

>  <assayed_system>
C. parapsilosis MMX 2323 ATCC 22019

>  <quantitative_readout>
1

$$$$

Next item in the queue.
Req: Fill in reported MIC for this entry: CC[C@H](C)[C@@H]1NC(=O)[C@@H]2CCCN2C(=O)[C@H](Cc2cccc(-c3cccc(F)c3)c2)N(C)C(=O)[C@H](Cc2ccccc2)NC(=O)[C@H](C(C)C)N(C)C(=O)[C@@H]([C@@H](C)CC)OC(=O)[C@H](C(C)(C)O)N(C)C(=O)[C@H](CC(C)C)NC(=O)[C@H](C(C)C)N(C)C1=O [Compound 7] (cyclo(F[X32]PI[NMeV]L[NMeVal(β-OH)][Hmp(2R,3S)][NMeV]))
Resp: 1
